Form field: Controls mean ± SD absorbance (one value per entry).
Test system: human sera
TEST_PROTOCOL: ELISA: binding of biotinylated collagen peptides to human sera
MEASUREMENT_CONTEXT: 81 sera from healthy controls; read at 450 nm
Where no end group is shown, it is not given here. [ ]: non-standard residue; d: D form. Cit = NC(=O)NCCC[C@H](N)C(=O)O
// keep it numeric: no unit symbol after the value

Here is how some sequences turned out for Controls mean ± SD absorbance.
input_sequence="EKAHDGGRYYRA (also: biotinylated, site not given here; listed as Homo sapiens) [C-telopeptide of α1(I) Arginine peptide, synthetic C-telopeptide of the α1 chain of human type I collagen]" measured_parameter="Controls mean ± SD absorbance" result_value=0.288
input_sequence="YDFGYDGDFYXA (YDFGYDGDFY[Cit]A; also: biotinylated (site not given here))" measured_parameter="Controls mean ± SD absorbance" result_value=0.763
input_sequence="SAFAGLGPXEKGPD (SAFAGLGP[Cit]EKGPD; also: biotinylated (site not given here)) [CC2 Citrulline peptide]" measured_parameter="Controls mean ± SD absorbance" result_value=0.135

What does the data say about its Controls mean ± SD absorbance? Entry: EKAHDGGRYYXA (EKAHDGGRYY[Cit]A; also: biotinylated, site not given here)
0.314

What does the data say about its Controls mean ± SD absorbance? Entry: LAGQXGIVGLP (LAGQ[Cit]GIVGLP; also: biotinylated (site not given here)) [CC3 Citrulline peptide]
0.181

What does the data say about its Controls mean ± SD absorbance? Entry: SAFAGLGPXEKGPD [CC2 Arginine peptide]
0.162
